# target or test system: T1, Antigen CD66c (CEACAM6; Sino Biological, Inc.) (UniProt P40199 35-320)
# T1 construct: Bought antigen coated on the ELISA plate; construct not described; also called CD66c antigen; CECACAM6
# T1 sequence (looked up): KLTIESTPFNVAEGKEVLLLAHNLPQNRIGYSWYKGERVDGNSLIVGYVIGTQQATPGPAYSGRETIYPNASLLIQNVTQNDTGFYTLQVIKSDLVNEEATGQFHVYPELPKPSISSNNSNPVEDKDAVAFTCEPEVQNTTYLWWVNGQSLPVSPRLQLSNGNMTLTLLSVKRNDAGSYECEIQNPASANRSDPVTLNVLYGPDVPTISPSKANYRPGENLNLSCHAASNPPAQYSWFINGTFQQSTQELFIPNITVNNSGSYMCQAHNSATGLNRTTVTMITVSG
# experiment: ELISA, coated CEACAM6 100 ng/well, antibody 13.72 ng/ml
# Protocol: Antigen CD66c (CEACAM6; Sino Biological, Inc.) and CEACAM1 antigen (Sino Biological, Inc.) were coated on a 96-well plate at 100 ng per well and then blocked. […] The washing was carried out at three times between each step, and the TMB reaction was performed, stopped with 1N H₂SO₄ solution at the same amount of TMB solution (100 ul) and then OD value was measured at 450 nm. […]
measured quantity: OD 450 nm (OD)
Kindly answer with a numeric value in OD, unit omitted.

Here is how some binders turned out for OD 450 nm.
binder	measured quantity	output unit	readout value
recombinant humanized anti-CD66c antibody Protein ID 3043 (Vk8 + VH6) (antibody, human IgG1, V domains shown, also called hu 3043; #71) VH: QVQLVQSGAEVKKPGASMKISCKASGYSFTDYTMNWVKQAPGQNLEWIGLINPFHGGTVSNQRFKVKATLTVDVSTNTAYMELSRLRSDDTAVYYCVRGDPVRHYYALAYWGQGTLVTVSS VL: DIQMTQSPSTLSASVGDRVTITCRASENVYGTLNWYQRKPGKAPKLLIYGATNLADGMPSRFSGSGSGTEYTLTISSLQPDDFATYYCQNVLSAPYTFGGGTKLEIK	OD 450 nm	OD	1.37
recombinant humanized anti-CD66c antibody Protein ID 2938 (Vk5 + VH7) (antibody, human IgG1, V domains shown, also called hu 2938) VH: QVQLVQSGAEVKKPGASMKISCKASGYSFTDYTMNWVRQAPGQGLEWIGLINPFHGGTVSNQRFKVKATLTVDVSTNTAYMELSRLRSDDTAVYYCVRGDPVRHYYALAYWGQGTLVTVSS VL: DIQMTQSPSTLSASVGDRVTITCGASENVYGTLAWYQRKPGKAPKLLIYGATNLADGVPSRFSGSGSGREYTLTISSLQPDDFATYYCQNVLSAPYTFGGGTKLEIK	OD 450 nm	OD	1.15
recombinant humanized anti-CD66c antibody Protein ID 3058 (Vk8 + VH11) (antibody, human IgG1, V domains shown, also called hu 3058; #86) VH: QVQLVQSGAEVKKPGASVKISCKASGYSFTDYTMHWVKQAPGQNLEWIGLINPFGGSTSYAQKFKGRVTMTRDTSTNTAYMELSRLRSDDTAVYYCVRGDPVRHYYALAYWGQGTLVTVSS VL: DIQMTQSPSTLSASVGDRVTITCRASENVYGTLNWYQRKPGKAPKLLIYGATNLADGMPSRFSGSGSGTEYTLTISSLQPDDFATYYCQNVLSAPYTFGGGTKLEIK	OD 450 nm	OD	1.06

**Q:** Consider the binder recombinant humanized anti-CD66c antibody Protein ID 3007 (Vk7 + VH6) (antibody, human IgG1, V domains shown, also called hu 3007; #43) VH: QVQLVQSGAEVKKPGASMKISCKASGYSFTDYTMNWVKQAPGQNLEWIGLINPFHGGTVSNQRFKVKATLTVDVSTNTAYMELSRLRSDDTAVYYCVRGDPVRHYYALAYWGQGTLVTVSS VL: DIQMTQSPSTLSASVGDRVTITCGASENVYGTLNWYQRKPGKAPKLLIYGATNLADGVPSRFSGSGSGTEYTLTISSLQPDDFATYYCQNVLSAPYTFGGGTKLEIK and give its measured OD 450 nm.
**A:** 1.64

Ref: patent US20190263905A1
